Every entry's value here was drawn from patent US20240293559A1.

system: SHP2 (Homo sapiens, UniProt Q06124)
Construct: endogenous in cells; host or cells: MV 411
Sequence (Q06124 1-593): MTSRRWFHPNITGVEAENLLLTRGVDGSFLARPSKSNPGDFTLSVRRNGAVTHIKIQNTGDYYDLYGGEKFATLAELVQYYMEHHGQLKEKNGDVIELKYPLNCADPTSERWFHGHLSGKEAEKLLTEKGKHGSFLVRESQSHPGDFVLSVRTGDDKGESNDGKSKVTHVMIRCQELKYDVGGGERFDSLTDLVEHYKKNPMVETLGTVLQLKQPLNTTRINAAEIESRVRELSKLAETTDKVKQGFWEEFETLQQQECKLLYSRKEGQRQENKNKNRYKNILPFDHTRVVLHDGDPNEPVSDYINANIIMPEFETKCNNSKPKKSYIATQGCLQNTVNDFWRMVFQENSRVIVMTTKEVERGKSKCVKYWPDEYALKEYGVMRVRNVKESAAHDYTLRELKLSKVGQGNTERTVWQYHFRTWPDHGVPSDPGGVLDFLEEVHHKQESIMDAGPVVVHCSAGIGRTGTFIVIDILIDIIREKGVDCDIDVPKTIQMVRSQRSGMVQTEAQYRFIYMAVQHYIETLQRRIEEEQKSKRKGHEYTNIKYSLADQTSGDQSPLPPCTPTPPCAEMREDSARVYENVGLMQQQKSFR
protocol_text: SHP2 degradation in MV 411 cells by Western blot (median degradation concentration)
Assay type: cell-based
condition_details: 24 hours with compound, SHP-2 antibody Western blot, concentration of the median degradation from exposure gray scale
Excerpt: Reagent: complete DMEM medium, Gibco products. Fetal bovine serum, manufactured byThermoFisher. Trypsin, manufactured byThermoFisher. The SHP-2 antibody is produced by CST. […] Measuring method: took the cells growing in the logarithmic phase, collected and suspended the cells in DMEM containing 10% fetal calf serum, gently blowed and beated the cells into single cell suspension by using a pipette, and counted the living cells under a microscope. […]
List of DC50 values.

# annotated cases, reported DC50 shown
CCOc1cc2oc(-c3ccc(OCCOCCOCCOCCOc4cccc5c4C(=O)N(C4CCC(=O)NC4=O)C5=O)cc3Cl)cc(=O)c2cc1-c1cc(C(N)=O)cc(C(=O)Nc2ccccc2)c1 (centres unmarked): > 250 nM
CCOc1cc2oc(-c3ccc(OCCOCCOCCOCCOc4cccc5c4C(=O)N(C4CCC(=O)NC4=O)C5=O)cc3Cl)cc(=O)c2cc1-c1cc(NC(C)=O)cc(C(N)=O)c1 (centres unmarked): > 250 nM
CCOc1cc2oc(-c3ccc(OCCOCCOCCOCCOc4cccc5c4C(=O)N(C4CCC(=O)NC4=O)C5=O)cc3Cl)cc(=O)c2cc1-c1cc(C(N)=O)cc(C(F)(F)F)c1 (centres unmarked): 750 nM

Task: Sample CCOc1cc2oc(-c3ccc(OCCOCCOCCOCCOc4cccc5c4C(=O)N(C4CCC(=O)NC4=O)C5=O)cc3Cl)cc(=O)c2cc1-c1cc(C(N)=O)cc(C(=O)NC)c1 (centres unmarked) — what was its DC50?
Result: > 250 nM

Task: Would you kindly repeat that for CCOc1cc2oc(-c3ccc(NCCOCCOCCOCCOc4cccc5c4C(=O)N(C4CCC(=O)NC4=O)C5=O)cc3Cl)cc(=O)c2cc1-c1ccc(OC)cc1F (centres unmarked) ?
Result: 250 nM

---

system: SHP2 (Homo sapiens, UniProt Q06124)
Construct: endogenous in cells; host or cells: MV 411
protocol_text: SHP2 degradation in MV 411 cells by Western blot (median degradation concentration)
Type: cell-based
condition_details: 24 hours with compound, SHP-2 antibody Western blot, concentration of the median degradation from exposure gray scale
Below, each entry is listed alongside its reported DC50.
Write it as a number; the unit nM goes unstated.

Guide cases for DC50, answers given:
CCOc1cc2oc(-c3ccc(OCCOCCOCCOCCOc4cccc5c4C(=O)N(C4CCC(=O)NC4=O)C5=O)cc3Cl)cc(=O)c2cc1-c1cccc(N)c1 (centres unmarked) [Compound 26]: 3500
CCOc1cc2oc(-c3ccc(OCCOCCOCCOCCOc4cccc5c4C(=O)N(C4CCC(=O)NC4=O)C5=O)cc3Cl)cc(=O)c2cc1-c1cc(C(C)=O)cc(C(N)=O)c1 (centres unmarked) [Compound 75]: 24.6

Task: Value lookup for DC50; key = CCOc1cc2oc(-c3ccc(OCCOCCOCCOCCOc4cccc5c4C(=O)N(C4CCC(=O)NC4=O)C5=O)cc3Cl)cc(=O)c2cc1-c1ccc2c(c1)COC2=O (centres unmarked) [Compound 31]
Result: 300

---

Listed here are molecules together with their documented DC50.
system: SHP2 (Homo sapiens)
Construct: endogenous in cells; host or cells: MV 411
protocol_text: SHP2 degradation in MV 411 cells by Western blot (median degradation concentration)
Format: cell-based
condition_details: 24 hours with compound, SHP-2 antibody Western blot, concentration of the median degradation from exposure gray scale
From the text: Reagent: complete DMEM medium, Gibco products. Fetal bovine serum, manufactured byThermoFisher. Trypsin, manufactured byThermoFisher. The SHP-2 antibody is produced by CST. […] Measuring method: took the cells growing in the logarithmic phase, collected and suspended the cells in DMEM containing 10% fetal calf serum, gently blowed and beated the cells into single cell suspension by using a pipette, and counted the living cells under a microscope. […]
A number alone suffices; assume nM.

CCOc1cc2oc(-c3ccc(NCCOCCOCCOCCOc4cccc5c4C(=O)N(C4CCC(=O)NC4=O)C5=O)cc3Cl)cc(=O)c2cc1-c1cccc(CO)c1 (stereo not drawn) [Compound 11]: 50

Please look at the following molecule next.
Task: What value of measured DC50 is listed for CCOc1cc2oc(-c3ccc(OCCOCCOCCOCCOc4cccc5c4C(=O)N(C4CCC(=O)NC4=O)C5=O)cc3Cl)cc(=O)c2cc1-c1cc(N)cc(C(=O)OC)c1 (stereo not drawn) [Compound 40] ?
Result: 750

---

system: SHP2 (Homo sapiens)
Construct: endogenous in cells; host or cells: MV 411
Sequence (Q06124 1-593): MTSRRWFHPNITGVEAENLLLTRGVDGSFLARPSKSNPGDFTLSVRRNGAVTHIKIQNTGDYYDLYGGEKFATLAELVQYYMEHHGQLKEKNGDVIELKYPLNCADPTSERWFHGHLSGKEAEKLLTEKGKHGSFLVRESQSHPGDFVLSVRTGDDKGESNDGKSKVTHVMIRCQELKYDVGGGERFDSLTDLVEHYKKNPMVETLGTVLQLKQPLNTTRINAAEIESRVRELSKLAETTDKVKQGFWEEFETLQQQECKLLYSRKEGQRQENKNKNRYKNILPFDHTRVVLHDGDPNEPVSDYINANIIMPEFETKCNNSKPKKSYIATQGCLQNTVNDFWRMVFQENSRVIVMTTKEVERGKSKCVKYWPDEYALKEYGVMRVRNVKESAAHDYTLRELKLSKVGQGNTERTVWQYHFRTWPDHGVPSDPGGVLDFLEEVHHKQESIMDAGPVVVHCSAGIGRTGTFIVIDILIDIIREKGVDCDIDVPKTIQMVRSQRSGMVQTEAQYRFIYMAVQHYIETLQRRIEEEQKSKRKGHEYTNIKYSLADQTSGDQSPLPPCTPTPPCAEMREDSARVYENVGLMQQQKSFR
protocol_text: SHP2 degradation in MV 411 cells by Western blot (median degradation concentration)
Type: cell-based
condition_details: 24 hours with compound, SHP-2 antibody Western blot, concentration of the median degradation from exposure gray scale
// DC50 lookup, one value per entry

Task: Which DC50 is reported with SHP2 (Homo sapiens) for this entry: CCOc1cc2oc(-c3ccc(OCCOCCOCCOCCOc4cccc5c4C(=O)N(C4CCC(=O)NC4=O)C5=O)cc3Cl)cc(=O)c2cc1-c1cc(NS(C)(=O)=O)cc(C(N)=O)c1 (stereo not drawn) [Compound 66] ?
Result: > 250 nM

Task: Next compound: CCOc1cc2oc(-c3ccc(OCCOCCOCCOCCOc4cccc5c4C(=O)N(C4CCC(=O)NC4=O)C5=O)cc3Cl)cc(=O)c2cc1-c1cc(C(N)=O)cc(-n2ccnc2)c1 (stereo not drawn) [Compound 60]
Result: > 250 nM

---

system: SHP2 (Homo sapiens, UniProt Q06124)
Construct: endogenous in cells; host or cells: MV 411
protocol_text: SHP2 degradation in MV 411 cells by Western blot (median degradation concentration)
Format: cell-based
condition_details: 24 hours with compound, SHP-2 antibody Western blot, concentration of the median degradation from exposure gray scale
Below, each entry is listed with its recorded DC50.

CCOc1cc2oc(-c3ccc(NCCOCCOCCOCCOc4cccc5c4C(=O)N(C4CCC(=O)NC4=O)C5=O)cc3Cl)cc(=O)c2cc1-c1ccc2c(c1)CCC2 (stereo not shown) [Compound 12]: 920 nM
CCOc1cc2oc(-c3ccc(OCCOCCOCCOCCOc4cccc5c4C(=O)N(C4CCC(=O)NC4=O)C5=O)cc3Cl)cc(=O)c2cc1-c1cc(C(N)=O)cc(C(=O)N(C)C)c1 (stereo not shown) [Compound 77]: > 250 nM

Task: Look up DC50 for this compound: CCOc1cc2oc(-c3ccc(OCCOCCOCCOCCOc4cccc5c4C(=O)N(C4CCC(=O)NC4=O)C5=O)cc3Cl)cc(=O)c2cc1-c1cc(C(N)=O)cc(S(N)(=O)=O)c1 (stereo not shown) [Compound 80]
Result: > 500 nM

Task: Subsequent entry: CCOC(=O)c1cncc(-c2cc3c(=O)cc(-c4ccc(OCCOCCOCCOCCOc5cccc6c5C(=O)N(C5CCC(=O)NC5=O)C6=O)cc4Cl)oc3cc2OCC)c1 (stereo not shown) [Compound 41]
Result: 1000 nM
